Source of measurements: PubChem BioAssay AID504339

- Assay System: Lysine-specific demethylase 4A (Homo sapiens) (UniProt O75164)
- Sequence (O75164 whole entry, looked up, the tested form may be a part): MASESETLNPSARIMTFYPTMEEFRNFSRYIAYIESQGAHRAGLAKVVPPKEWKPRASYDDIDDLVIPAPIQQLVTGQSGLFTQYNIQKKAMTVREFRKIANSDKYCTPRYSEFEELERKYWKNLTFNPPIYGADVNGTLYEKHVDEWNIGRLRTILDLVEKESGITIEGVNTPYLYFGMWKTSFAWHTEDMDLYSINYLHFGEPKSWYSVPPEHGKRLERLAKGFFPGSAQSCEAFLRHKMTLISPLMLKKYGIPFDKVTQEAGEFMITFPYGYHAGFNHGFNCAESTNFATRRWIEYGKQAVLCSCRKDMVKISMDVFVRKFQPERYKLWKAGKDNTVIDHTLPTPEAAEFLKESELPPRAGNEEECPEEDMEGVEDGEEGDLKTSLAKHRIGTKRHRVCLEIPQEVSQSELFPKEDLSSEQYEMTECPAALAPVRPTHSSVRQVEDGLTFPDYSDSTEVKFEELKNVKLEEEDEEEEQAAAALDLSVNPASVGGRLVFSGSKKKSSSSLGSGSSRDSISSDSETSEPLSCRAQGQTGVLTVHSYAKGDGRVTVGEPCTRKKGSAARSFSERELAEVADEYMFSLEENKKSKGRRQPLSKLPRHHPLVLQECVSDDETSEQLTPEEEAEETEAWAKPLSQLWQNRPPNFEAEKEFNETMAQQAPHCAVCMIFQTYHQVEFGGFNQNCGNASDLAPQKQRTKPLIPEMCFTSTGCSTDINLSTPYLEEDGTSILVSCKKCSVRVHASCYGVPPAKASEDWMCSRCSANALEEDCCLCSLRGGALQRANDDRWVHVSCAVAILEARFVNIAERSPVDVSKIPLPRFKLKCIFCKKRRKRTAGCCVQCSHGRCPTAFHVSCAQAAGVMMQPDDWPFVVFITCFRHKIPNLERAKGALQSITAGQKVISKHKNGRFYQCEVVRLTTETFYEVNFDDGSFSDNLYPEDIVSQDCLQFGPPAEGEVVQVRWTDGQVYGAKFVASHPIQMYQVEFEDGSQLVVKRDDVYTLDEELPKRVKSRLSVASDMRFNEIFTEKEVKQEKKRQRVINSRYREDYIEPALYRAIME
- Experiment Notes: qHTS Assay for Inhibitors of JMJD2A-Tudor Domain; note: nearly all actives have a fitted effect of over 50% in size
- Setup Conditions: AlphaScreen JMJD2A-Tudor / H3K4me3 peptide binding; series mostly up to 114 µM
In all, about 390,000 compounds went through this assay and about 17,000 (4.4%) were called active. Not shown: some 8% with an inconclusive outcome. Calls come from the whole dose curve; as a rule, active = well fitted inhibition curve with a large enough effect; inconclusive = small, poorly fitted or top-dose-only effect; inactive = no such curve, though single readings can be large or run the other way. Many of the other results were omitted from the sample, so actives are more common in it than they were.
Hi there, use one of these labels in your reply, thanks! Y for active, N for inactive

Ask: Each compound tested received a call. Report the one for COc1ccccc1-c1nnc(NC(=O)c2cccc(N3C(=O)CCC3=O)c2)o1 .
Reply: Y

Ask: Record lookup: outcome of this test for COc1ccc(CN2CCNC(=O)C2CC(=O)N(C)Cc2ccccn2)cc1OC (stereo unspecified) ?
Reply: Y

Ask: Tell me the recorded outcome of this test for CCOC(=O)C1CCCN(C(=O)Cn2ncc3c(C)n(Cc4ccc(F)cc4)c(C)c3c2=O)C1 (stereo unspecified) .
Reply: N

Ask: What is the recorded call for this compound in the test? COC(=O)c1cccc(NC(=O)c2cccc(N3C(=O)CCC3=O)c2)c1
Reply: N

Ask: // param item: COc1ccc(Cl)cc1NC(=O)CCn1c(=O)c2cccn2c2ccccc21 ; yields the recorded call
Reply: N

Ask: Entry CCc1ccc(Sc2cc(C(=O)NCCCOC(C)C)c3ccccc3n2)cc1 : call = ?
Reply: N

----------
- Assay System: Lysine-specific demethylase 4A (Homo sapiens)
- Experiment Notes: qHTS Assay for Inhibitors of JMJD2A-Tudor Domain; note: nearly all actives have a fitted effect of over 50% in size
- Setup Conditions: AlphaScreen JMJD2A-Tudor / H3K4me3 peptide binding; series mostly up to 114 µM
Screen size: about 390,000 compounds; about 17,000 (4.4%) were called active. Roughly 8% stayed inconclusive and do not appear here. Calls come from the whole dose curve; as a rule, active = well fitted inhibition curve with a large enough effect; inconclusive = small, poorly fitted or top-dose-only effect; inactive = no such curve, though single readings can be large or run the other way. This excerpt belongs to a sample that is enriched for actives.
Can you answer with just one of these options? active, inactive

Ask: Test call for this compound, please: COc1cc(CN2CCC(C(N)=O)CC2)ccc1OCc1ccccc1
Reply: active

Ask: Per the assay record, what outcome was assigned to Cc1cc(C)c(OCC(=O)N(Cc2cccs2)C2CCS(=O)(=O)C2)c(C)c1 (configuration not stated) ?
Reply: inactive

Ask: Given CCn1c2ccccc2c2cc(NC(=O)CNC)ccc21 , state the outcome it received in this test.
Reply: active

Ask: Called result for COc1ccc(Cc2nnc(N/N=C/c3ccccc3O)[nH]c2=O)cc1OC
Reply: active

Ask: // param item: COc1ccccc1C(=O)N(Cc1ccc(C)o1)C1CCS(=O)(=O)C1 (configuration not stated) ; yields the recorded call
Reply: inactive

Ask: Record request — test call for O=[N+]([O-])c1ccc(Oc2ccc(F)cc2Br)c2ccncc12
Reply: active

Ask: For COc1ccc(CCN2C(=O)CC(N3CCC(C(N)=O)CC3)C2=O)cc1OC (configuration not stated) , which call appears in the assay record?
Reply: inactive

Ask: For this compound, state the assay outcome: CCOc1cc(CN2CCN(C(=O)CC(C)C)CC2)ccc1OC
Reply: active

Ask: Recorded test call requested for COc1ccccc1-c1noc(CSc2nnc(-c3ccccc3)n2-c2ccc(C)c(C)c2)n1
Reply: inactive

Ask: Would you mind telling me which call this test gave CC(C)CC(=O)N1CCN(Cc2ccccc2Br)CC1 ?
Reply: active

Ask: What call does the record list for Cc1ccc(C(=O)Nc2ccc3[nH]c(=O)c(=O)[nH]c3c2)cc1 ?
Reply: inactive

Ask: Recorded test outcome, item CCOC(=O)C1=C(c2ccc(OC)cc2)C(=O)c2ccccc2C1=O
Reply: active

Ask: Can you look up the reported call for Cc1nc(COc2cccc(Cl)c2)sc1C(=O)/C=C/N(C)C for me?
Reply: inactive

Ask: // param item: COc1ccc(-c2noc(CSc3nnc(-c4ccccc4)n3-c3ccc(F)cc3)n2)c(OC)c1 ; yields the recorded call
Reply: inactive

Ask: Test call, this compound: COc1cccc2c1C(=O)c1c(O)c3c(c(O)c1C2=O)CC(O)(C(C)=NNC(=O)c1ccc(Cl)c(Cl)c1)CC3OC1CC(N)C(O)C(C)O1 (configuration not stated)
Reply: active

Ask: Answer briefly: the call reported for Cc1cc(C)n2ncc(C(=O)Nc3cccc(C#N)c3)c2n1 in this assay.
Reply: inactive

Ask: GET /call?item= CCOC(=O)C(NC(C)=O)C(=O)Nc1ccc(OC)cc1 (configuration not stated) returns the recorded outcome of this test.
Reply: inactive

Ask: Which outcome was assigned to CC/S(CC1CC1(Cl)Cl)=N\S(=O)(=O)c1ccc(C)cc1 (configuration not stated) in this test?
Reply: inactive

Ask: Hi team, can someone confirm the assay call for Cc1ccccc1OCC(=O)N(Cc1cccc(F)c1)C1CCS(=O)(=O)C1 (configuration not stated) ?
Reply: inactive

Ask: Entry Cc1ccc(NC(=O)C2CCN(S(=O)(=O)c3cc(-c4noc(C)n4)ccc3C)CC2)c(C)c1 : call = ?
Reply: inactive

Ask: Which outcome did this test record for the compound COc1ccc(CC(=O)N[C@@H](CCSC)c2nc3ccccc3[nH]2)cc1 ?
Reply: inactive

Ask: Give the logged outcome of this assay for the following compound: CCOC(=O)c1ccccc1CN1C(=O)c2ccccc2S1(=O)=O
Reply: inactive

Ask: Write down the call the test reported for this compound. Item: CC1CCCCN1Cc1c(O)ccc2c(=O)c(-c3cccc(Cl)c3)c(C(F)(F)F)oc12 (configuration not stated)
Reply: inactive

Ask: Per the assay record, what outcome was assigned to CCOc1ccc(C(=O)N(Cc2ccc(N(C)C)cc2)C2CCS(=O)(=O)C2)cc1 (configuration not stated) ?
Reply: inactive

Ask: Per the records of this test, what outcome belongs to COc1ccc(-c2nc3scc(CCNS(=O)(=O)c4cc(F)ccc4OC)n3n2)cc1OC ?
Reply: inactive

Ask: Record request — test call for CCOC(=O)C1CCN(Cc2nnc(-c3cccc(Br)c3)o2)CC1
Reply: inactive

Ask: Give the logged outcome of this assay for the following compound: Cc1ccc(-c2cc(-c3coc4ccccc4c3=O)c3c(n2)-c2cc(Cl)ccc2OC3)cc1
Reply: inactive

Ask: # fetch the recorded call for CCc1ccc(OCC(=O)N(Cc2ccccc2)C2CCS(=O)(=O)C2)cc1 (configuration not stated) here
Reply: inactive

Ask: // param item: COc1ccc(Cl)cc1-n1c(CCC(=O)O)ccc1-c1ccc(C)cc1 ; yields the recorded call
Reply: inactive

Ask: Could you check what this test reported for COc1ccc(COCC(O)CN2CCC(C(N)=O)CC2)cc1 (configuration not stated) ?
Reply: inactive

Ask: Query: recorded result category for CCOc1cc(CO)ccc1OCC(=O)N1CCCCC1 in this test
Reply: inactive

Ask: Kindly provide the recorded test outcome for the following compound: CCCC/S(C)=N/S(=O)(=O)c1ccc(C)cc1 (configuration not stated)
Reply: inactive

Ask: Give the logged outcome of this assay for the following compound: CCn1c2ccccc2c2cc(NC(=O)COc3ccc(C)cc3C)ccc21
Reply: inactive

Ask: What call does the record list for Cc1cccc(-c2nc(SCc3ccc(Br)cc3)n3[nH]c(=O)cc3n2)c1 ?
Reply: inactive

Ask: Each compound tested received a call. Report the one for CN(C)/C=C/C(=O)c1ccccc1F .
Reply: inactive

Ask: Which outcome was entered for the compound COc1ccc(N2CCN(Cc3nc4c(c(=O)[nH]c(=O)n4C)n3Cc3ccc(Cl)cc3)CC2)cc1 in this test?
Reply: inactive

Ask: # fetch the recorded call for Cc1cc(C)cc(OCC(=O)Nc2nc(-c3ccc(F)cc3)ns2)c1 here
Reply: inactive

----------
- Assay System: Lysine-specific demethylase 4A (Homo sapiens)
- Experiment Notes: qHTS Assay for Inhibitors of JMJD2A-Tudor Domain; note: nearly all actives have a fitted effect of over 50% in size
- Setup Conditions: AlphaScreen JMJD2A-Tudor / H3K4me3 peptide binding; series mostly up to 114 µM
Screen size: about 390,000 compounds; about 17,000 (4.4%) were called active. About 8% were inconclusive and are not listed. The call rests on the fitted dose curve; in most records, active means well fitted inhibition curve with a large enough effect; inconclusive means small, poorly fitted or top-dose-only effect; inactive means no such curve, though single readings can be large or run the other way. The sample as a whole holds a higher share of actives than the screen did.
Answer with one of the outcomes 1 (yes) = active, 0 (no) = inactive

Ask: What is the recorded call for this compound in the test? CC(=O)Nc1ccc(NC(=O)c2cc3sccc3n2Cc2ccc(F)cc2)cc1
Reply: 0 (no)

Ask: Entry Cc1ccc(Cl)cc1NC(=O)Cc1ccc(-n2c(C)nc3cccnc32)cc1 : call = ?
Reply: 0 (no)

Ask: Short answer needed: outcome of this test for COCCCNC(=S)NC(=O)c1ccc([N+](=O)[O-])cc1 ?
Reply: 0 (no)

Ask: Outcome? CCOC(=O)c1cc2c(=O)n3ccccc3nc2n(CC2CCCO2)c1=NC(=O)c1ccc(C(C)(C)C)cc1 (centres undefined)
Reply: 0 (no)

Ask: Hi, sorry to bother you, what did the test record for CCOc1ccc(-c2nnn(CC(=O)N3CCN(c4ccc(OC)cc4)CC3)n2)cc1OCC ?
Reply: 0 (no)

Ask: Called result for Cc1ccc(NC(=O)CN2C(=O)C(c3ccc(F)cc3)=NC23CCCCCC3)c(C)c1
Reply: 0 (no)

Ask: Test call for this compound, please: COc1ccc(N2CCN(C(=O)CSc3nc4cc(OC)c(OC)cc4cc3C#N)CC2)cc1
Reply: 1 (yes)

Ask: Name the outcome recorded for C=CCc1ccc(OCC(O)CN2CCN(Cc3ccccc3)CC2)c(OC)c1 (centres undefined) in the assay.
Reply: 0 (no)

Ask: Record request — test call for COc1cccc(C(=O)NCC(=O)OCc2cc(=O)n3ccsc3n2)c1
Reply: 0 (no)

Ask: // return assay outcome for CCC(=O)Nc1cccc(-c2nc3cc(C)ccc3o2)c1
Reply: 0 (no)

Ask: # outcome recorded in this test, key = CCN1CCC2(CC1)N=C(c1ccc(F)cc1)C(=S)N2C(=O)c1ccc(C)cc1
Reply: 1 (yes)

Ask: Assay result, entry COc1ccc(CCN2C(=O)N(c3cccc(OC)c3)C(=O)C2CC(=O)Nc2ccccc2)cc1 (centres undefined) — outcome?
Reply: 0 (no)

Ask: Tell me the recorded outcome of this test for CC(C)CC(=O)NC(=S)NNC(=O)c1cccc([N+](=O)[O-])c1 .
Reply: 0 (no)

Ask: Called result for CCOC(=O)c1ccc(N2C(=O)c3n[nH]c(C)c3C2c2ccc(O)c(OC)c2)cc1 (centres undefined)
Reply: 0 (no)

Ask: // outcome(item) with item = CC(C)Cn1c(-c2ccc(S(=O)(=O)N3CCOCC3)cc2)csc1=Nc1cc(Cl)ccc1Cl
Reply: 0 (no)

Ask: Outcome? COC(=O)c1cccc(N(CC(=O)NCC2CCCO2)C(=O)CCC(=O)Nc2cc(C)on2)c1 (centres undefined)
Reply: 0 (no)

Ask: Short answer needed: outcome of this test for O=C(CSC1=Nc2ccccc2C2=NC(c3ccccc3)C(=O)N12)NCC1CCCO1 (centres undefined) ?
Reply: 0 (no)

Ask: Returns: the outcome recorded for CC1CCN(CCC(=O)Nc2ccccc2)CC1 in this assay.
Reply: 0 (no)

Ask: Given CCCCCC(=O)NC(=S)NNC(=O)c1ccc([N+](=O)[O-])cc1 , state the outcome it received in this test.
Reply: 1 (yes)
